Test: Lipophilicity, log D of compound
Format: physicochemical
Settings: octanol/water
observed-property: logD
# output: bare number, no unit

In: Return logD (reported value) for this molecule: "COc1ccc2nc3c(nc2c1)O[C@H]1CN(C(=O)[C@H](C(C)(C)C)NC(=O)O[C@@H]2C[C@H]2CCCCC3)[C@H](C(=O)N[C@]2(C(=O)NS(=O)(=O)C3(C)CC3)C[C@H]2C(F)F)[C@@H]1C"
Out: 3.5

In: # return recorded logD for input "CC[C@@H]1[C@@H]2CN(C(=O)[C@H](C(C)(C)C)NC(=O)O[C@@H]3C[C@H]3CCCCCc3nc4ccc(OC)cc4nc3O2)[C@@H]1C(=O)N[C@]1(C(=O)NS(=O)(=O)C2(C)CC2)C[C@H]1C(F)F"
Out: 3.8

In: Fill in logD for record "CC[C@@H]1[C@@H]2CN(C(=O)[C@H](C(C)(C)C)NC(=O)O[C@@H]3C[C@H]3CCCCCc3nc4ccc(OC)cc4nc3O2)[C@@H]1C(=O)N[C@]1(C(=O)NS(=O)(=O)C2CC2)C[C@H]1CC"
Out: 4.6

In: Answer with reported logD of "CC[C@@H]1[C@@H]2CN(C(=O)[C@H](C(C)(C)C)NC(=O)O[C@@H]3C[C@H]3CCCCCc3nc4ccc(OC)cc4nc3O2)[C@@H]1C(=O)N[C@]1(C(=O)NS(=O)(=O)C2CC2)C[C@H]1C(F)F"
Out: 3.5

In: Supply reported logD belonging to this molecule: "C=C[C@@H]1C[C@]1(NC(=O)[C@@H]1[C@H](CC)[C@@H]2CN1C(=O)[C@H](C(C)(C)C)NC(=O)O[C@@H]1C[C@H]1CCCCCc1nc3ccc(OC)cc3nc1O2)C(=O)NS(=O)(=O)C1CC1"
Out: 4.1
